Catalogue of In vitro Sensitivity Test S.typhi 13311 values
System: Salmonella typhimurium (S.typhi) 13311
ASSAY SUMMARY: In vitro sensitivity test (agar dilution method)
Format: cell-based
REPORTED CONDITIONS: 37°C, 20 to 24 hours
Write it as a number; the unit µg/mL goes unstated.

Sample answers from the record:
INSERT INTO assay_data (molecule, measurement_kind, numeric_value) VALUES
  ('CN[C@@H]1CCC[C@H]2[C@@H]1CCN2c1c(F)cc2c(=O)c(C(=O)O)cn(C3CC3)c2c1F (relative stereo)', 'In vitro Sensitivity Test S.typhi 13311', 0.1),
  ('O=C(O)c1cn(C2CC2)c2c(F)c(N3CC4CCCC(=O)C4C3)c(F)cc2c1=O (stereo not shown)', 'In vitro Sensitivity Test S.typhi 13311', 0.39);

Enquiry: // fetch In vitro Sensitivity Test S.typhi 13311; item: Cl.N[C@H]1CC[C@H]2CN(c3c(F)cc4c(=O)c(C(=O)O)cn(C5CC5)c4c3F)C[C@H]21 (relative stereo) ; system: Salmonella typhimurium (S.typhi) 13311
Return: 0.1

Enquiry: // fetch In vitro Sensitivity Test S.typhi 13311; item: CNCC12CCCC1CN(c1c(F)cc3c(=O)c(C(=O)O)cn(C4CC4)c3c1F)C2.Cl (stereo not shown) ; system: Salmonella typhimurium (S.typhi) 13311
Return: 0.2

====

System: Salmonella typhimurium (S.typhi) 13311
ASSAY SUMMARY: In vitro sensitivity test (agar dilution method)
Assay type: cell-based
REPORTED CONDITIONS: 37°C, 20 to 24 hours
Where a name gives a salt, the structure may show the parent alone.
Catalogue of In vitro Sensitivity Test S.typhi 13311 values
Write it as a number; the unit µg/mL goes unstated.

INSERT INTO assay_data (compound, numeric_value) VALUES
  ('CCn1cc(C(=O)O)c(=O)c2cc(F)c(N3C[C@H]4CCC[C@@]4(CNC)C3)c(F)c21.Cl (relative stereo)', 0.78),
  ('NC[C@@]12CCC[C@@H]1CN(c1cc3c(cc1F)c(=O)c(C(=O)O)cn3C1CC1)C2 (relative stereo)', 0.2),
  ('CN(C)[C@@H]1C(O)=C(C(N)=O)C(=O)[C@@]2(O)C(O)=C3C(=O)c4c(O)ccc(Cl)c4[C@@](C)(O)[C@H]3C[C@@H]12 [CTC, chlorotetracycline hydrochloride, reference compound]', 0.1),
  ('C[C@H]1c2cccc(O)c2C(=O)C2=C(O)[C@]3(O)C(=O)C(C(N)=O)=C(O)[C@@H](N(C)C)[C@@H]3[C@@H](O)[C@@H]21 [DOXY, doxycycline, reference compound]', 0.1),
  ('CCNCC12CCCC1CN(c1c(F)cc3c(=O)c(C(=O)O)cn(CC)c3c1F)C2.Cl (stereo not shown)', 1.56);

Enquiry: // fetch In vitro Sensitivity Test S.typhi 13311; item: CNC[C@@]12CCC[C@@H]1CN(c1cc3c(cc1F)c(=O)c(C(=O)O)cn3C1CC1)C2 (relative stereo) ; system: Salmonella typhimurium (S.typhi) 13311
Return: 0.2

Enquiry: // fetch In vitro Sensitivity Test S.typhi 13311; item: N[C@H]1CCC[C@H]2CN(c3c(F)cc4c(=O)c(C(=O)O)cn(C5CC5)c4c3F)CC[C@H]21 (relative stereo) ; system: Salmonella typhimurium (S.typhi) 13311
Return: 0.2

====

ASSAY SUMMARY: Acute toxicity (LD50)
REPORTED CONDITIONS: in vivo, ip; Mouse (B6C3F₁, male), i.p.; read-out: LD₅₀
MEASUREMENT KIND: LD50 (mg/kg)
Write it as a number; the unit mg/kg goes unstated.

Enquiry: Provide measured LD50 value, entry: CNCC12CCCC1CN(c1c(F)cc3c(=O)c(C(=O)O)cn(C4CC4)c3c1F)C2.Cl (stereo not shown) [I-5]
Return: 200

====

Catalogue of Number of infected fowl/Number of fowl tested values
Test system: TS-resistant strain of MG
Assay type: in vivo, chicken
REPORTED CONDITIONS: oral 1.56 mg/kg; 9-days chicken, 3.5 x 10³ CFU/fowl

INSERT INTO measurements (compound, result) VALUES
  ('Cl.Nc1c(F)c(N2C[C@@H]3CC[C@@H](N)[C@@H]3C2)c(F)c2c1c(=O)c(C(=O)O)cn2C1CC1 (relative stereo)', '5/5'),
  ('CCN1CCN(c2cc3c(cc2F)c(=O)c(C(=O)O)cn3C2CC2)CC1 [ERFX, Enrofuroxasin®, reference compound]', '2/5'),
  ('CCNCC12CCCC1CN(c1c(F)cc3c(=O)c(C(=O)O)cn(CC)c3c1F)C2.Cl (stereo not shown)', '5/5');

Next, consider the following compound.
Enquiry: Provide measured Number of infected fowl/Number of fowl tested value, entry: CCn1cc(C(=O)O)c(=O)c2cc(F)c(N3C[C@H]4CCC[C@@]4(CNC)C3)c(F)c21.Cl (relative stereo)
Return: 3/5

Hello, the source for this data is patent EP0429304A2, in case you need it.
